From: patent US20190106460A1

For each of the binders below, state its IC50.
Target: T1, βTrCP (tag cleaved and complexed with Skp1) (UniProt Q9Y297 175-605; P63208 1-163)
T1 construct: Protein of the FP assay (0.035 µM); also called Beta Transducin repeat-containing protein; βTrCP/Skp1
T1 sequence (Q9Y297 175-605, chain 1 of 2): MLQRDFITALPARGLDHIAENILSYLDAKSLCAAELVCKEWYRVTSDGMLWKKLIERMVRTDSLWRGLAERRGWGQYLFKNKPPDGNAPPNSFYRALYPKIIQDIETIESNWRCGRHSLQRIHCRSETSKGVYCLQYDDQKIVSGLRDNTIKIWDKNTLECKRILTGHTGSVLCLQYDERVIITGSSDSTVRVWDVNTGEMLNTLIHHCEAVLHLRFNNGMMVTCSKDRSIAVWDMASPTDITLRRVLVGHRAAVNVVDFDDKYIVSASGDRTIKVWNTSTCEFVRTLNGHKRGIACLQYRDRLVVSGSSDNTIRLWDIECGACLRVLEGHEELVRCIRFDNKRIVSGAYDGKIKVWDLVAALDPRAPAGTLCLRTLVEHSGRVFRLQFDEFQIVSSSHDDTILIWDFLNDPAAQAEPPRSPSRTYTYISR
T1 sequence (P63208 whole entry, chain 2 of 2): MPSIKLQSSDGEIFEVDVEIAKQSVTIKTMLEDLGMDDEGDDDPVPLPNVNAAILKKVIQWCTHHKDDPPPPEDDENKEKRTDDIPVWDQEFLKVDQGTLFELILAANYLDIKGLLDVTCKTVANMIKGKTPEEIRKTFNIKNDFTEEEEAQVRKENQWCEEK
Assay: FP competition vs fluorescein-IκB peptide
Non-standard residues stand in square brackets, D forms with d. *: point of attachment. Benzenesulfonyl(4-OMe) = COc1ccc(S(=O)(=O)*)cc1; Phe(3-F) = N[C@@H](Cc1cccc(F)c1)C(=O)O; Tos = Cc1ccc(S(=O)(=O)*)cc1
Give bare numbers, in nM.

Example entries and their recorded answers appear below.
>>> value_reported("Tos-DEG[Phe(3-F)]WE-NH2 (SMILES Cc1ccc(S(=O)(=O)N[C@@H](CC(=O)O)C(=O)N[C@@H](CCC(=O)O)C(=O)NCC(=O)N[C@@H](Cc2cccc(F)c2)C(=O)N[C@@H](Cc2c[nH]c3ccccc23)C(=O)N[C@@H](CCC(=O)O)C(N)=O)cc1, also called UBP024) [Ts-DEGF(3F)WE-NH2]")
18
>>> value_reported("{Benzenesulfonyl(4-OMe)}-[dD]EG[Phe(3-F)]WE-NH2 (SMILES COc1ccc(S(=O)(=O)N[C@H](CC(=O)O)C(=O)N[C@@H](CCC(=O)O)C(=O)NCC(=O)N[C@@H](Cc2cccc(F)c2)C(=O)N[C@@H](Cc2c[nH]c3ccccc23)C(=O)N[C@@H](CCC(=O)O)C(N)=O)cc1, also called UBP022) [4-(MeO)-PhSO2-dEGF(3F)WE-NH2]")
17

Turning now to a further binder:
*Q* Any idea what IC50 was measured for Tos-[dD]EG[Phe(3-F)]WD-NH2 (SMILES Cc1ccc(S(=O)(=O)N[C@H](CC(=O)O)C(=O)N[C@@H](CCC(=O)O)C(=O)NCC(=O)N[C@@H](Cc2cccc(F)c2)C(=O)N[C@@H](Cc2c[nH]c3ccccc23)C(=O)N[C@@H](CC(=O)O)C(N)=O)cc1, also called UBP027) [Ts-dEGF(3F)WD-NH2] ?
*A* 34
